- assay remarks: Solubility in water at room temperature
- Format: physicochemical

smiles notation	solubility / mg/mL
O=C(CCC(=O)O[C@@H]1[C@@H](O)[C@@H](O)O[C@H](CO)[C@H]1O)Oc1ccc(/C=C/c2cc(OC(=O)CCC(=O)O[C@@H]3[C@@H](O)[C@@H](O)O[C@H](CO)[C@H]3O)cc(OC(=O)CCC(=O)O[C@@H]3[C@@H](O)[C@@H](O)O[C@H](CO)[C@H]3O)c2)cc1	90

###

- assay remarks: Solubility in pH 9 buffer
- Type: physicochemical
experimental endpoint: solubility (µg/mL)

compound	experimental endpoint	measurement unit	value observed
C[C@@H]1O[C@@H](OC[C@H]2O[C@@H](Oc3c(-c4ccc(O)c(O)c4)oc4cc(O)cc(O)c4c3=O)[C@H](O)[C@@H](O)[C@@H]2O)[C@H](O)[C@H](O)[C@H]1O [RUTIN]	solubility	µg/mL	2300
